In this section, each of the compounds is paired with its reported Mouse D473H % Inh.
targetOfAssay: mouse SMO^D473H (Mus musculus, UniProt P56726, D477H)
Construct: expressed in transfected cells
Sequence (P56726 33-793 D477H): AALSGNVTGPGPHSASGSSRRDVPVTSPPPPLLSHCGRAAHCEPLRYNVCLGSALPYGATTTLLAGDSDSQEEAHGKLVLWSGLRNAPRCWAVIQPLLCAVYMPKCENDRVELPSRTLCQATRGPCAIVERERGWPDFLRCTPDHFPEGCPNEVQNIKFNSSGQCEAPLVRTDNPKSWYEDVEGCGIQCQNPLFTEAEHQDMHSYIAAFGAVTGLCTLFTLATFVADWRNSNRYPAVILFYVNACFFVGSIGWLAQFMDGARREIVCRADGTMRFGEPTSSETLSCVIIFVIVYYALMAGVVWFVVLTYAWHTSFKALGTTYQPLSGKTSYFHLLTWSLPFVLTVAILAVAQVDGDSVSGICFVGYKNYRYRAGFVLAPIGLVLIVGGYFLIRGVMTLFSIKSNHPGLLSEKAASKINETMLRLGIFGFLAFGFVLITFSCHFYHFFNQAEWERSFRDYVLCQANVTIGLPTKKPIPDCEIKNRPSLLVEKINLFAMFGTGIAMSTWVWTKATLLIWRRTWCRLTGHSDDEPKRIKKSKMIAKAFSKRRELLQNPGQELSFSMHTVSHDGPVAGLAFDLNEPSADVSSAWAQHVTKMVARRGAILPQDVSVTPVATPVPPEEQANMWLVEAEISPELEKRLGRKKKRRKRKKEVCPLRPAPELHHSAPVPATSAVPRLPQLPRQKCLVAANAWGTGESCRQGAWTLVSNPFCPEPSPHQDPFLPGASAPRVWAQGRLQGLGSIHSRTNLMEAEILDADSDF
protocolSummary: Mouse assay: Gli1 qPCR in MEF cells stably expressing mouse SMO D473H; note: test concentration or dose not given here
Assay type: cell-based
condition: mSHh-treated, 24 hours, percentage Gli1 inhibition
Mention the unit after the number when you answer.

Given O=C(Nc1ccc(-c2nc(C3CCCCC3)n[nH]2)cc1)c1cccc(CN2CCS(=O)(=O)CC2)c1 [Example 3-6] , state its recorded Mouse D473H % Inh.
98.4%

Next up: COc1ccc(Cc2n[nH]c(-c3ccc(NC(=O)c4cccc(CN5CCS(=O)(=O)CC5)c4)cc3)n2)cn1 [Example 3-30]
98.4%

Next up: O=C(Nc1ccc(-c2noc(C3CCCC3)n2)cc1)c1cccc(CN2CCS(=O)(=O)CC2)c1 [Example 4-14]
99.1%

Next up: Cn1nc(-c2ccc(NC(=O)c3cccc(CN4CCS(=O)(=O)CC4)c3)cn2)cc1C1CC1 [Example 5-4]
97.0%

Next up: O=C(Nc1ccc(-c2cc(C3CC3)n[nH]2)cc1)c1ccc(Cl)c(CN2CCS(=O)(=O)CC2)c1 [Example 4-20]
98.4%

Next up: Cc1c(-c2ccc(NC(=O)c3ccc(Cl)c(CN4CCS(=O)(=O)CC4)c3)cc2)nn(C)c1C1CC1 [Example 4-26]
97.6%

Next up: O=C(Nc1ccc(-c2nc(-c3cccc(F)c3)n[nH]2)cc1)c1cccc(CN2CCS(=O)(=O)CC2)c1 [Example 3-10]
97.9%

---

targetOfAssay: mouse SMO^WT (Mus musculus)
Construct: expressed in transfected cells
protocolSummary: Mouse assay: Gli1 qPCR in MEF cells stably expressing mouse SMO WT
Type: cell-based
condition: mSHh-treated, 24 hours, Gli1 inhibition by qPCR, read-out: Mouse WT pIC50 (converted)
Procedure: Cell culture. All materials were purchased from Sigma-Aldrich, unless otherwise stated. Compound treatment. […] Cell lysis and one-step qPCR. […] Real-time PCR amplification was detected using the Bio-Rad CFX384 Touch PCR system. […] Real-time data were analysed using the CFX Maestro software (Bio-Rad) and obtained expression values were converted to percentage Gli1 inhibition by normalising to the average Gli1 expression of mSHh-treated control samples.
metric: IC50 (nM)
Kindly provide the numeric value in nM only, without the unit symbol.

Take a look at these entries with their results.
- O=C(Nc1ccc(-c2nc(C3CC3)n[nH]2)cc1)c1ccc(F)c(CN2CCS(=O)(=O)CC2)c1 [Example 2-3]: 20
- O=C(Nc1ccc(-c2nc(C3CCCC3)n[nH]2)cc1)c1cccc(CN2CCS(=O)(=O)CC2)c1 [Example 3-5]: 10

Given O=C(Nc1ccc(-c2cc(C3CC3)on2)cc1)c1cccc(CN2CCS(=O)(=O)CC2)c1 [Example 4-7] , state its recorded IC50.
2.51

Next up: COc1ccc(-c2n[nH]c(-c3ccc(NC(=O)c4cccc(CN5CCS(=O)(=O)CC5)c4)cc3)n2)cc1 [Example 3-12]
12.6

Next up: Cc1oc(-c2ccc(NC(=O)c3ccc(F)c(CN4CCS(=O)(=O)CC4)c3)cc2)nc1C1CC1 [Example 4-3]
0.2

Next up: O=C(Nc1ccc(-c2noc(C3CCC3)n2)cc1)c1cccc(CN2CCS(=O)(=O)CC2)c1 [Example 4-13]
50.1

Next up: Cc1oc(-c2ccc(NC(=O)c3ccc(Cl)c(CN4CCS(=O)(=O)CC4)c3)cn2)nc1Br [Example 5-1]
20

Next up: Cn1nc(-c2ccc(NC(=O)c3ccc(Cl)c(CN4CCS(=O)(=O)CC4)c3)cc2)cc1C1CC1 [Example 4-24]
0.631

Next up: O=C(Nc1ccc(-c2nc(Cc3ccc(Br)cc3)n[nH]2)cc1)c1cccc(CN2CCS(=O)(=O)CC2)c1 [Example 3-24]
3.98

Next up: Cc1c(-c2ccc(NC(=O)c3ccc(Cl)c(CN4CCS(=O)(=O)CC4)c3)cc2)nn(C)c1C1CC1 [Example 4-26]
0.794

Next up: CC1(C)CN(Cc2cccc(C(=O)Nc3ccc(-c4nc(C5CC5)n[nH]4)cc3)c2)CCS1(=O)=O [Example 1-3]
20

Next up: Cc1oc(-c2ccc(NC(=O)c3ccc(Cl)c(CN4CCS(=O)(=O)CC4)c3)cc2)nc1C1CC1 [Example 4-4]
0.2

Next up: Cn1nc(-c2ccc(NC(=O)c3cccc(CN4CCS(=O)(=O)CC4)c3)nc2)cc1C1CC1 [Example 5-5]
31.6

Next up: Cl.O=C(Nc1ccc(-c2nnc(C3CC3)o2)cc1)c1cccc(CN2CCS(=O)(=O)CC2)c1 [Example 4-8]
79.4

Next up: O=C(Nc1ccc(-c2nc(C3CC3)n[nH]2)cc1)c1cc(F)cc(CN2CCS(=O)(=O)CC2)c1 [Example 2-2]
10

Next up: Cc1oc(-c2ccc(NC(=O)c3ccc(Cl)c(CN4CCS(=O)(=O)CC4)c3)cn2)nc1C1CC1 [Example 5-2]
2

Next up: O=C(Nc1ccc(-c2nc(C3CCN(c4ccccc4)C3)n[nH]2)cc1)c1cccc(CN2CCS(=O)(=O)CC2)c1 (centres unmarked) [Example 3-8]
20

Next up: Cl.O=C(Nc1ccc(-c2nc(C3CCC3)n[nH]2)cc1)c1cccc(CN2CCS(=O)(=O)CC2)c1 [Example 3-4]
25.1

Next up: O=C(Nc1ccc(-c2nc(Cc3cc4c(cc3Cl)OCO4)n[nH]2)cc1)c1cccc(CN2CCS(=O)(=O)CC2)c1 [Example 3-29]
25.1

Next up: O=C(Nc1ccc(-c2nc(-c3cccc(Oc4nccs4)c3)n[nH]2)cc1)c1cccc(CN2CCS(=O)(=O)CC2)c1 [Example 3-13]
79.4

Next up: O=C(Nc1ccc(-c2cc(C3CC3)no2)cc1)c1cccc(CN2CCS(=O)(=O)CC2)c1 [Example 4-6]
12.6

Next up: CC1CN(Cc2cccc(C(=O)Nc3ccc(-c4nc(C5CC5)n[nH]4)cc3)c2)CCS1(=O)=O (centres unmarked) [Example 1-2]
15.8

---

targetOfAssay: mouse SMO^WT (Mus musculus)
Construct: expressed in transfected cells
protocolSummary: Mouse assay: Gli1 qPCR in MEF cells stably expressing mouse SMO WT
Type: cell-based
condition: mSHh-treated, 24 hours, Gli1 inhibition by qPCR, read-out: Mouse WT pIC50 (converted)
metric: IC50 (nM)
Kindly provide the numeric value in nM only, without the unit symbol.

Take a look at these entries with their results.
- O=C(Nc1ccc(-c2nc(Cc3ccc4c(c3)OCCO4)n[nH]2)cc1)c1cccc(CN2CCS(=O)(=O)CC2)c1 [Example 3-28]: 79.4
- Cc1cc(Cc2n[nH]c(-c3ccc(NC(=O)c4cccc(CN5CCS(=O)(=O)CC5)c4)cc3)n2)ccc1Br [Example 3-27]: 15.8
- O=C(Nc1ccc(-c2nc(Cc3ccccc3F)n[nH]2)cc1)c1cccc(CN2CCS(=O)(=O)CC2)c1 [Example 3-19]: 25.1

Now for the molecule whose IC50 we want.
Given O=C(Nc1ccc(-c2nc(C3CC3)n[nH]2)cc1)c1cc(CN2CCS(=O)(=O)CC2)ccc1F [Example 2-1] , state its recorded IC50.
15.8

---

targetOfAssay: mouse SMO^WT (Mus musculus, UniProt P56726)
Construct: expressed in transfected cells
Sequence (P56726 33-793): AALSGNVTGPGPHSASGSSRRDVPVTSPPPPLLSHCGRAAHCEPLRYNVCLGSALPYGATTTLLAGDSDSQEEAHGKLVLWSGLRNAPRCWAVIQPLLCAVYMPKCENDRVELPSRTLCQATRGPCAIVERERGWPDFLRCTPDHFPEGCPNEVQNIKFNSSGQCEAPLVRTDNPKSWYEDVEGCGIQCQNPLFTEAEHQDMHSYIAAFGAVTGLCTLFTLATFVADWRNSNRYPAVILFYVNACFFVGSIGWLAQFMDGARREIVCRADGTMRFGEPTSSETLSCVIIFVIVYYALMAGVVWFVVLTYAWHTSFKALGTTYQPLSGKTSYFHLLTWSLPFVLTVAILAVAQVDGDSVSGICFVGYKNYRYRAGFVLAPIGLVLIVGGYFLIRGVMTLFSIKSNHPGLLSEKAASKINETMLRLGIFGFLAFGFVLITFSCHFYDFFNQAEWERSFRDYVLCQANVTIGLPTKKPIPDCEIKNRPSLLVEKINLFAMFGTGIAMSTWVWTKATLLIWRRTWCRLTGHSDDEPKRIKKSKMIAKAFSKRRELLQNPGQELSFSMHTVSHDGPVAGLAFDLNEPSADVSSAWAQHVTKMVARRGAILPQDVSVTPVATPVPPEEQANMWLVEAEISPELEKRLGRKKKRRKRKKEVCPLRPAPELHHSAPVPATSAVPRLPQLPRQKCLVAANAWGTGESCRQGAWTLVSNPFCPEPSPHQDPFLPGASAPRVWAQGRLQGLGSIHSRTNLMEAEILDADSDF
protocolSummary: Mouse assay: Gli1 qPCR in MEF cells stably expressing mouse SMO WT; for Mouse WT % Inh: test concentration or dose not given here
Type: cell-based
condition: mSHh-treated, 24 hours, percentage Gli1 inhibition
Description: Cell culture. All materials were purchased from Sigma-Aldrich, unless otherwise stated. Compound treatment. […] Cell lysis and one-step qPCR. […] Real-time PCR amplification was detected using the Bio-Rad CFX384 Touch PCR system. […] Real-time data were analysed using the CFX Maestro software (Bio-Rad) and obtained expression values were converted to percentage Gli1 inhibition by normalising to the average Gli1 expression of mSHh-treated control samples.
In this section, each of the compounds is paired with its reported Mouse WT % Inh.

• O=C(Nc1ccc(-c2nc(-c3ccc(COc4ccccc4F)cc3)n[nH]2)cc1)c1cccc(CN2CCS(=O)(=O)CC2)c1 = 97.3%
• Cc1cc(Cc2n[nH]c(-c3ccc(NC(=O)c4cccc(CN5CCS(=O)(=O)CC5)c4)cc3)n2)ccc1Br = 99.3%

Given O=C(Nc1ccc(-c2nc(Cc3ccc(F)cc3)n[nH]2)cc1)c1cccc(CN2CCS(=O)(=O)CC2)c1 , state its recorded Mouse WT % Inh.
97.5%

---

targetOfAssay: mouse SMO^WT (Mus musculus, UniProt P56726)
Construct: expressed in transfected cells
protocolSummary: Mouse assay: Gli1 qPCR in MEF cells stably expressing mouse SMO WT; for Mouse WT % Inh: test concentration or dose not given here
Type: cell-based
condition: mSHh-treated, 24 hours, percentage Gli1 inhibition
metric: Mouse WT % Inh (%)
Kindly provide the numeric value in % only, without the unit symbol.

• Cn1nc(-c2ccc(NC(=O)c3cccc(CN4CCS(=O)(=O)CC4)c3)cn2)cc1C1CC1 [Example 5-4] = 97.3
• Cl.O=C(Nc1ccc(-c2nc(C3CCC3)n[nH]2)cc1)c1cccc(CN2CCS(=O)(=O)CC2)c1 [Example 3-4] = 98.0
• Cn1nc(-c2ccc(NC(=O)c3cccc(CN4CCS(=O)(=O)CC4)c3)nc2)cc1C1CC1 [Example 5-5] = 97.7
• O=C(Nc1ccc(-c2nc(Cc3cccc(F)c3)n[nH]2)cc1)c1cccc(CN2CCS(=O)(=O)CC2)c1 [Example 3-20] = 99.0
• O=C(Nc1ccc(-c2nc(Cc3cc4c(cc3Cl)OCO4)n[nH]2)cc1)c1cccc(CN2CCS(=O)(=O)CC2)c1 [Example 3-29] = 99.1

Now for the molecule whose Mouse WT % Inh we want.
Given O=C(Nc1ccc(-c2nc(-c3ccccn3)n[nH]2)cc1)c1cccc(CN2CCS(=O)(=O)CC2)c1 [Example 3-15] , state its recorded Mouse WT % Inh.
98.9
